measurement-target: Ubiquitin carboxyl-terminal hydrolase 17-like protein 5 (Homo sapiens) (UniProt A8MUK1)
Sequence (A8MUK1 whole entry, looked up): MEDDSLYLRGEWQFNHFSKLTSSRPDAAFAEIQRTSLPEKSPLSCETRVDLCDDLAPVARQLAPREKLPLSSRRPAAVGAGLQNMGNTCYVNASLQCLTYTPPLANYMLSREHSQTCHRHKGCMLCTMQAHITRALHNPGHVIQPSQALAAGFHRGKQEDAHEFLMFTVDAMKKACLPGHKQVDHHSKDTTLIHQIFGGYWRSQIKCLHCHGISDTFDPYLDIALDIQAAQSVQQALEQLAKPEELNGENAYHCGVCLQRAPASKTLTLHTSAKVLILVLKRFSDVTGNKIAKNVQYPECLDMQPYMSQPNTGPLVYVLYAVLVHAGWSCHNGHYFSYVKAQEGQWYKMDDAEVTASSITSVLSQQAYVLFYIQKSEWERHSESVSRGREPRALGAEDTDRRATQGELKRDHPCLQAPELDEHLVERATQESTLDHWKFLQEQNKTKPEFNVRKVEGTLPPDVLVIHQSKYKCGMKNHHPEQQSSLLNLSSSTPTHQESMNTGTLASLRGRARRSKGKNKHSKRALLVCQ
test-protocol: ubiquitin-specific protease 17 DUB inhibitors, concentration-effect assay, cell-free, verification of initial screening actives (AID 1645864)
condition-details: purified USP17, ubiquitin-rhodamine cleavage fluorescence, 3 h
Calls of active or inactive are those of the source.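 The calls were made as follows: active = maximal inhibition of USP17 at or above 30% in the confirmation dose-response, a value not among the printed readouts; inactive = the rest.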
Labels: true (1) = active, false (0) = inactive

compound	answer-label
Cc1cccc(-n2nc(C)c3c2NC(=O)CC3C(=O)c2cc3ccccc3o2)c1 (centres undefined)	true (1)
O=c1c2ccccc2ncn1C1CCN(S(=O)(=O)c2ccccc2F)CC1	true (1)
COc1ccc(NC(=O)Cn2c(CS(=O)(=O)c3ccc(C)cc3)nc3ccccc32)cc1	true (1)
COCCn1ccc2nc(C)c(C(=O)Nc3ccc4c(c3)OCCO4)cc2c1=O	true (1)
O=C(COc1nc2ccccc2nc1N1CCOCC1)Nc1cccc(S(=O)(=O)N2CCCCC2)c1	false (0)
CN[C@H]1CC2(CCN(C(=O)CCCn3cccn3)CC2)OC[C@]1(C)O	false (0)
O=C(NCc1ccc2c(c1)OCO2)c1[nH]nc2c1COc1ccccc1-2	true (1)
CCC1(C)Cc2c(sc3nc(SCC(=O)Nc4ccc(C(C)=O)cc4)nc(N)c23)CO1 (centres undefined)	true (1)
N#Cc1cc2c(nc1SCC(=O)NCc1ccccc1)CCCC2	false (0)
Fc1cccc(Cn2cc(-c3noc(-c4ccncc4)n3)nn2)c1	true (1)
CCc1ccc2c(c1)[C@]1(C(=O)N2)[C@@H]2C(=O)N(c3ccc(Cl)cc3Cl)C(=O)[C@@H]2[C@@H]2CCCN21	false (0)
O=C(Cn1c(=O)n(Cc2ccc3c(c2)OCO3)c(=O)c2ncccc21)c1ccccc1	true (1)
O=C(Nc1ccc2c(c1)OCCO2)Nc1nnc(CC(=O)N2CCCCC2)s1	false (0)
Cc1nc(CN2CCn3c(Cn4cccn4)cnc3C2C)cs1 (centres undefined)	false (0)
Cc1cc(Nc2ccc(C(=O)NCc3ccco3)cc2)n2nc(-c3cccnc3)nc2n1	true (1)
CCc1ccc(OCc2nnc(SCC(=O)Nc3ccccc3OC)n2Cc2ccccc2)cc1	false (0)
CCOc1ccc(NC(=O)Cn2c(=O)n(CCC(=O)NCc3ccco3)c(=O)c3ccccc32)cc1	true (1)
O=C(NCc1ccc2c(c1)OCO2)c1nc(-c2ccccc2)n(-c2ccccc2)n1	false (0)
CCCc1nc2sc3c(NCCc4ccc(OC)c(OC)c4)ncnc3c2c2c1CCC2	false (0)

---

measurement-target: UniProt A8MUK1
test-protocol: ubiquitin-specific protease 17 DUB inhibitors, concentration-effect assay, cell-free, verification of initial screening actives (AID 1645864)
condition-details: purified USP17, ubiquitin-rhodamine cleavage fluorescence, 3 h
Activity calls are given as the source filed them.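 Rule for the calls: active = maximal inhibition of USP17 at or above 30% in the confirmation dose-response, a value not among the printed readouts; inactive = the rest.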
Classes used: T = active, F = inactive

structure-as-smiles	answer-label
Nc1ncnc(SCc2ccc(Cl)cc2)n1	T
O=c1cc(CNc2ccc(Br)cc2)nc2nc(-c3ccccc3)[nH]n12	F
COc1ccc(-n2nnc(C(=O)Nc3ccccc3)c2N)cc1	T
Cc1ccc(Cn2nnc(-c3ccccc3Cl)n2)cc1	F

---

measurement-target: Ubiquitin carboxyl-terminal hydrolase 17-like protein 5 (Homo sapiens)
test-protocol: ubiquitin-specific protease 17 DUB inhibitors, concentration-effect assay, cell-free, verification of initial screening actives (AID 1645864)
condition-details: purified USP17, ubiquitin-rhodamine cleavage fluorescence, 3 h
Active and inactive are the calls of the source.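 How the source made its calls: active means maximal inhibition of USP17 at or above 30% in the confirmation dose-response, a value not among the printed readouts; inactive means the rest.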
Classes used: 1 for active, -1 for inactive

molecule	answer-label
O=C(NCc1ccccc1)c1ccc2c(=O)n(-c3ccccc3)c(=O)[nH]c2c1	1
O=C(Nc1ccc2c(c1)OCCO2)C1CCC(Cn2cnc3ccccc3c2=O)CC1 (centres undefined)	-1
O=S(=O)(c1ccccc1)N1CCN2Cc3ccccc3N(Cc3ccccc3)CC2C1 (centres undefined)	-1
COc1cccc(C(=O)Nc2ccc(-n3cnnn3)cc2)c1	-1

---

measurement-target: Ubiquitin carboxyl-terminal hydrolase 17-like protein 5 (Homo sapiens) (UniProt A8MUK1)
test-protocol: ubiquitin-specific protease 17 DUB inhibitors, concentration-effect assay, cell-free, verification of initial screening actives (AID 1645864)
condition-details: purified USP17, ubiquitin-rhodamine cleavage fluorescence, 3 h
Calls of active or inactive are those of the source.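 The calls were made as follows: active = maximal inhibition of USP17 at or above 30% in the confirmation dose-response, a value not among the printed readouts; inactive = the rest.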
Possible outcomes: active, inactive

compound	answer-label
COc1c(O)cc(CC(=O)O)c(C(C)=O)c1O	active
COc1ccc(/C=C/C(=O)N2CCc3ccccc32)cc1S(=O)(=O)N1CCOCC1	inactive
CC1OC2CC(O)C1(O)C1=C2C(O)=C(C(N)=O)C(=N)C1=O (stereo unspecified)	active
CC(C)CC(=O)Nc1cc(F)c2nc(N3CCOCC3)ccc2c1	active
Cc1cnc2nc3c(cc2c1)CN(S(=O)(=O)c1cc(F)ccc1C)CC3	inactive
O=c1ncn(Cc2ccc3c(c2)OCO3)cc1-c1ncc(C(F)(F)F)cc1Cl	active
Cn1c(=O)/c(=C/c2ccccc2)[nH]c(=O)/c1=C/c1ccccc1	active
CC(=O)c1cccc(NC(=O)c2ccc(-c3csc(C)n3)cc2)c1	inactive
COc1ccc2ncc3c(-c4ccc(C)cc4)nn(-c4ccc(F)cc4)c3c2c1	active
Cc1ccn(-c2ccc(NC(=O)C3CCCCC3)cc2)n1	active
CCC(=O)Nc1ccc2c(c1)nc(CSc1nccc(C)n1)n2CC	inactive
Cn1c(CCNC(=O)c2[nH]nc3c2CCc2ccccc2-3)nc2ccccc21	active
COc1cc(NC(=O)COC(=O)Cn2cnc3ccccc32)cc(OC)c1	inactive
Cc1nn(-c2ccc([N+](=O)[O-])cc2)c(C)c1-c1nc2ccccc2[nH]1	active
C=C1Nc2ccccc2C(=O)N1c1cccc(NC(=O)c2ccc(C)c(C)c2)c1	inactive
N#Cc1ccccc1OCc1csc(-c2ccccc2)n1	inactive
FC(F)(F)c1ccccc1CCN1CCc2nc3ccc(Cl)cc3cc2C1	inactive
Cc1cc2nc(-c3ccc(SCc4ccccn4)nc3)[nH]c2cc1C	active
O=C(Nc1cccc(N2CCCC2=O)c1)c1cccc2cccnc12	active
COc1ccc(/C=C/C(=O)Nc2c3c(nc4c2CCC4)CCCC3)cc1	active
Cc1cccc(NC(=O)CN2C(=O)CC(c3ccccc3)S(=O)(=O)c3ccccc32)c1C (stereo unspecified)	active
CCOC(=O)c1cnn(-c2ccc(C(=O)Nc3ccc(C)c(Cl)c3)cc2)c1N	active
CN1CCN(C(=O)c2cc(-c3ccn(-c4ccccc4)n3)n3ccccc23)CC1	inactive
COc1cc(OC)c2c(c1)C(=O)C1=C(COC(C)(O)C1)C2=O (stereo unspecified)	active
Cc1ccc2nc(NC(=O)C3CCCN3S(=O)(=O)c3ccc4c(c3)OCCO4)sc2c1 (stereo unspecified)	inactive
CCn1c(SCc2cccc(C)c2)nnc1-c1cnccn1	inactive

---

Items are presented alongside their recorded IC50.
measurement-target: UniProt:A8MUK1
test-protocol: ubiquitin-specific protease 17 DUB inhibitors, concentration-effect assay, cell-free, verification of initial screening actives (AID 1645864)
condition-details: purified USP17, ubiquitin-rhodamine cleavage fluorescence, 3 h
Activity calls are given as the source filed them.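 How the source made its calls: active means maximal inhibition of USP17 at or above 30% in the confirmation dose-response, a value not among the printed readouts; inactive means the rest.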
observable: IC50

compound	measurement-target	value-reported
FC(F)(F)c1ccccc1CCN1CCc2nc3ncc(Cl)cc3cc2C1	UniProt:A8MUK1	> 50 µM (inactive)
CSc1nccc(-c2ccc(F)cc2)c1C#N	UniProt:A8MUK1	20.7 µM
CC(C)(C)C(=O)Nc1ccc(SCc2nnc(-c3ccccc3)o2)cc1	UniProt:A8MUK1	> 50 µM (inactive)
Cc1ncncc1C(=O)N1CCCC(C)(c2ncc(Cc3cccc(F)c3)o2)C1 (stereo unspecified)	UniProt:A8MUK1	> 50 µM (inactive)
O=C(c1cc2ccccc2o1)N1CC=C(c2ccccc2)CC1	UniProt:A8MUK1	> 50 µM (inactive)
O=C(CSc1nc2cc(C(F)(F)F)ccc2s1)NCC(=O)c1ccccc1	UniProt:A8MUK1	1.86 µM

---

measurement-target: Ubiquitin carboxyl-terminal hydrolase 17-like protein 5 (Homo sapiens)
test-protocol: ubiquitin-specific protease 17 DUB inhibitors, concentration-effect assay, cell-free, verification of initial screening actives (AID 1645864)
condition-details: purified USP17, ubiquitin-rhodamine cleavage fluorescence, 3 h
Activity calls are given as the source filed them.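 How the source made its calls: active means maximal inhibition of USP17 at or above 30% in the confirmation dose-response, a value not among the printed readouts; inactive means the rest.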
Labels: active, inactive

compound	answer-label
Oc1ccc(-c2nc3ccc(Cl)cn3c2NC2CCCCC2)cc1	active
O=C(Cn1nc2ccc(C(=O)NCc3ccccc3)cn2c1=O)Nc1ccc2c(c1)OCO2	active
O=C(Nc1cccn(Cc2c(Cl)cccc2Cl)c1=O)c1ccccc1[N+](=O)[O-]	active
O=C(Cn1c(=O)n(Cc2ccc3c(c2)OCO3)c(=O)c2ncccc21)c1ccc(Cl)cc1	active
O=c1[nH]cccc1NS(=O)(=O)c1ccc(F)cc1	inactive
CN1C(=O)COc2cc(-c3noc(C(=O)NC4CCCCCC4)n3)ccc21	active
CCOC(=O)c1c(C)nc2n(Cc3ccccc3)c3ccccc3n12	active
CC(=O)c1ccc(NC(=O)c2ccc(N3CCCCS3(=O)=O)cc2Cl)cc1	active
Cc1ccc2c(c1)c(=O)c(C(=O)c1ccccc1)cn2CC(=O)Nc1ccc2c(c1)OCCO2	active
O=C(Nc1ccc2c(c1)OCCO2)c1ccc(N2CCCCC2)nn1	inactive
Cc1ccccc1NC(=O)Nc1ccccc1OCc1cc(=O)n2cccc(C)c2n1	active
CCn1cc2c(n1)c(=O)n(Cc1ccc(C)cc1)c(=O)n2CC(=O)Nc1ccc(F)cc1	active
CCS(=O)(=O)c1ccccc1C(=O)Nc1ccc2sc(C)nc2c1	inactive
COc1ccc(C(=O)Nc2sc3c(c2C(=O)NCc2cccnc2)CCCC3)cc1	active
O=C(CCCCn1c(=O)[nH]c2ccccc2c1=O)Nc1cccc(Cl)c1	active
Cc1ccc(CSC2=NS(=O)(=O)c3ccccc3N2)cc1	inactive
CN(CCc1ccccc1)c1nccc(N2CCN(C(=O)c3csc(-c4cccnc4)n3)CC2)n1	inactive
COc1ccc(CC(NC(C)=O)C(=O)NC2CCN(c3c(Cc4ccccc4)c(C)nc4ncnn34)CC2)cc1OC (stereo not drawn)	inactive
O=C(NCc1ccc2c(c1)OCO2)c1cc2c(s1)-c1ccccc1OC2	active
O=C(CSc1ccc2nnc(-c3ccccc3)n2n1)N1CCCc2ccccc21	active
Cc1noc(-c2cccn(Cc3cccc(C(F)(F)F)c3)c2=O)n1	inactive
Cc1c(C)n(-c2ccccc2)c2ncn(CC(=O)NCCCc3ccccc3)c(=O)c12	active
Cc1c(-c2nnc(-c3ccccn3)o2)nnn1-c1cccc(Cl)c1	active
